Test system: panel of nearly 500 cancer cell lines
procedure.details: Cancer Cell Line Encyclopedia profiling, 3-day CellTiter-Glo
Format: cell-based
test.parameters: Homo sapiens, SNU-398
value.kind: EC50 (nM)

CN(C)C(=O)c1cc2cnc(Nc3ccc(N4CCNCC4)cn3)nc2n1C1CCCC1 [Ribociclib]	569

* * *

Test system: panel of nearly 500 cancer cell lines
procedure.details: Cancer Cell Line Encyclopedia profiling, 3-day CellTiter-Glo
Assay type: cell-based
test.parameters: Homo sapiens, NCI-H1703
pIC50: −log10 of the molar value.
value.kind: pIC50

CN(C)C(=O)c1cc2cnc(Nc3ccc(N4CCNCC4)cn3)nc2n1C1CCCC1	< 5.10

* * *

Test system: panel of nearly 500 cancer cell lines
procedure.details: Cancer Cell Line Encyclopedia profiling, 3-day CellTiter-Glo
Format: cell-based
test.parameters: Homo sapiens, Granta-519
value.kind: IC50

CN(C)C(=O)c1cc2cnc(Nc3ccc(N4CCNCC4)cn3)nc2n1C1CCCC1 [Ribociclib]	> 8 µM

* * *

Tested on: panel of nearly 500 cancer cell lines
procedure.details: Cancer Cell Line Encyclopedia profiling, 3-day CellTiter-Glo
Assay type: cell-based
test.parameters: hcc15 (lung); read-out: IC50
value.kind: IC50

CC(=O)c1c(C)c2cnc(Nc3ccc(N4CCNCC4)cn3)nc2n(C2CCCC2)c1=O [Palbociblib]	> 8 µM

* * *

Test system: panel of nearly 500 cancer cell lines
procedure.details: Cancer Cell Line Encyclopedia profiling, 3-day CellTiter-Glo
Type: cell-based
test.parameters: malme3m (skin); read-out: IC50
value.kind: IC50

CC(=O)c1c(C)c2cnc(Nc3ccc(N4CCNCC4)cn3)nc2n(C2CCCC2)c1=O [Palbociblib]	> 8 µM

* * *

Tested on: panel of nearly 500 cancer cell lines
procedure.details: Cancer Cell Line Encyclopedia profiling, 3-day CellTiter-Glo
Format: cell-based
test.parameters: Homo sapiens, 786-0
value.kind: IC50

CN(C)C(=O)c1cc2cnc(Nc3ccc(N4CCNCC4)cn3)nc2n1C1CCCC1 [Ribociclib]	> 8 µM

* * *

System: panel of nearly 500 cancer cell lines
procedure.details: Cancer Cell Line Encyclopedia profiling, 3-day CellTiter-Glo
Type: cell-based
test.parameters: cama1 (breast); read-out: IC50
pIC50: −log10 of the molar value.
value.kind: pIC50

CC(=O)c1c(C)c2cnc(Nc3ccc(N4CCNCC4)cn3)nc2n(C2CCCC2)c1=O	< 5.10

* * *

Tested on: panel of nearly 500 cancer cell lines
procedure.details: Cancer Cell Line Encyclopedia profiling, 3-day CellTiter-Glo
Assay type: cell-based
test.parameters: ncih1793 (lung); read-out: IC50
pIC50: −log10 of the molar value.
value.kind: pIC50

CC(=O)c1c(C)c2cnc(Nc3ccc(N4CCNCC4)cn3)nc2n(C2CCCC2)c1=O	5.69

* * *

Tested on: panel of nearly 500 cancer cell lines
procedure.details: Cancer Cell Line Encyclopedia profiling, 3-day CellTiter-Glo
Assay type: cell-based
test.parameters: cell line umuc3, urinary_tract; read-out: IC50
pIC50: −log10 of the molar value.
value.kind: pIC50

CC(=O)c1c(C)c2cnc(Nc3ccc(N4CCNCC4)cn3)nc2n(C2CCCC2)c1=O	< 5.10

* * *

Test system: panel of nearly 500 cancer cell lines
procedure.details: Cancer Cell Line Encyclopedia profiling, 3-day CellTiter-Glo
Type: cell-based
test.parameters: Homo sapiens, COLO 320
pEC50: −log10 of the molar value.
value.kind: pEC50

CC(=O)c1c(C)c2cnc(Nc3ccc(N4CCNCC4)cn3)nc2n(C2CCCC2)c1=O [Palbociclib, reference compound]	< 5.10
CN(C)C(=O)c1cc2cnc(Nc3ccc(N4CCNCC4)cn3)nc2n1C1CCCC1 [Ribociclib]	< 5.10

* * *

Test system: panel of nearly 500 cancer cell lines
procedure.details: Cancer Cell Line Encyclopedia profiling, 3-day CellTiter-Glo
Format: cell-based
test.parameters: rt4 (urinary_tract); read-out: IC50
pIC50: −log10 of the molar value.
value.kind: pIC50

CC(=O)c1c(C)c2cnc(Nc3ccc(N4CCNCC4)cn3)nc2n(C2CCCC2)c1=O	< 5.10

* * *

System: panel of nearly 500 cancer cell lines
procedure.details: Cancer Cell Line Encyclopedia profiling, 3-day CellTiter-Glo
Format: cell-based
test.parameters: Homo sapiens, NCI-H3255
value.kind: IC50

CN(C)C(=O)c1cc2cnc(Nc3ccc(N4CCNCC4)cn3)nc2n1C1CCCC1	> 8 µM

* * *

Test system: panel of nearly 500 cancer cell lines
procedure.details: Cancer Cell Line Encyclopedia profiling, 3-day CellTiter-Glo
Type: cell-based
test.parameters: Homo sapiens, A673
pIC50: −log10 of the molar value.
value.kind: pIC50

CN(C)C(=O)c1cc2cnc(Nc3ccc(N4CCNCC4)cn3)nc2n1C1CCCC1	< 5.10

* * *

Test system: panel of nearly 500 cancer cell lines
procedure.details: Cancer Cell Line Encyclopedia profiling, 3-day CellTiter-Glo
Format: cell-based
test.parameters: Homo sapiens, Hs 294T
value.kind: EC50 (µM)

CN(C)C(=O)c1cc2cnc(Nc3ccc(N4CCNCC4)cn3)nc2n1C1CCCC1	4.66

* * *

Tested on: panel of nearly 500 cancer cell lines
procedure.details: Cancer Cell Line Encyclopedia profiling, 3-day CellTiter-Glo
Format: cell-based
test.parameters: pl45 (pancreas); read-out: IC50
value.kind: IC50

CC(=O)c1c(C)c2cnc(Nc3ccc(N4CCNCC4)cn3)nc2n(C2CCCC2)c1=O [Palbociblib]	> 8 µM

* * *

Test system: panel of nearly 500 cancer cell lines
procedure.details: Cancer Cell Line Encyclopedia profiling, 3-day CellTiter-Glo
Format: cell-based
test.parameters: Homo sapiens, BT-474
value.kind: IC50

CN(C)C(=O)c1cc2cnc(Nc3ccc(N4CCNCC4)cn3)nc2n1C1CCCC1 [Ribociclib]	> 8 µM

* * *

Tested on: panel of nearly 500 cancer cell lines
procedure.details: Cancer Cell Line Encyclopedia profiling, 3-day CellTiter-Glo
Assay type: cell-based
test.parameters: Homo sapiens, NCI-H1650
value.kind: IC50

CN(C)C(=O)c1cc2cnc(Nc3ccc(N4CCNCC4)cn3)nc2n1C1CCCC1 [Ribociclib]	> 8 µM

* * *

Test system: panel of nearly 500 cancer cell lines
procedure.details: Cancer Cell Line Encyclopedia profiling, 3-day CellTiter-Glo
Type: cell-based
test.parameters: 8305c (thyroid); read-out: IC50
value.kind: IC50 (µM)

CC(=O)c1c(C)c2cnc(Nc3ccc(N4CCNCC4)cn3)nc2n(C2CCCC2)c1=O	5.34

* * *

Test system: panel of nearly 500 cancer cell lines
procedure.details: Cancer Cell Line Encyclopedia profiling, 3-day CellTiter-Glo
Type: cell-based
test.parameters: Homo sapiens, KYSE-30
value.kind: IC50

CN(C)C(=O)c1cc2cnc(Nc3ccc(N4CCNCC4)cn3)nc2n1C1CCCC1 [Ribociclib]	> 8 µM

* * *

Test system: panel of nearly 500 cancer cell lines
procedure.details: Cancer Cell Line Encyclopedia profiling, 3-day CellTiter-Glo
Format: cell-based
test.parameters: ONCO-DG-1
value.kind: IC50

CN(C)C(=O)c1cc2cnc(Nc3ccc(N4CCNCC4)cn3)nc2n1C1CCCC1 [Ribociclib]	> 8 µM

* * *

Tested on: panel of nearly 500 cancer cell lines
procedure.details: Cancer Cell Line Encyclopedia profiling, 3-day CellTiter-Glo
Assay type: cell-based
test.parameters: Homo sapiens, MDA-MB-453
value.kind: IC50

CN(C)C(=O)c1cc2cnc(Nc3ccc(N4CCNCC4)cn3)nc2n1C1CCCC1	> 8 µM

* * *

Tested on: panel of nearly 500 cancer cell lines
procedure.details: Cancer Cell Line Encyclopedia profiling, 3-day CellTiter-Glo
Type: cell-based
test.parameters: Homo sapiens, NCI-H460
value.kind: EC50

CN(C)C(=O)c1cc2cnc(Nc3ccc(N4CCNCC4)cn3)nc2n1C1CCCC1	> 8 µM

* * *

Tested on: panel of nearly 500 cancer cell lines
procedure.details: Cancer Cell Line Encyclopedia profiling, 3-day CellTiter-Glo
Format: cell-based
test.parameters: Homo sapiens, SK-N-SH
value.kind: IC50 (µM)

CN(C)C(=O)c1cc2cnc(Nc3ccc(N4CCNCC4)cn3)nc2n1C1CCCC1 [Ribociclib]	7.74

* * *

System: panel of nearly 500 cancer cell lines
procedure.details: Cancer Cell Line Encyclopedia profiling, 3-day CellTiter-Glo
Type: cell-based
test.parameters: Homo sapiens, KCL-22
value.kind: EC50

CN(C)C(=O)c1cc2cnc(Nc3ccc(N4CCNCC4)cn3)nc2n1C1CCCC1	> 8 µM

* * *

System: panel of nearly 500 cancer cell lines
procedure.details: Cancer Cell Line Encyclopedia profiling, 3-day CellTiter-Glo
Type: cell-based
test.parameters: hs840t (upper_aerodigestive_tract); read-out: IC50
value.kind: IC50

CC(=O)c1c(C)c2cnc(Nc3ccc(N4CCNCC4)cn3)nc2n(C2CCCC2)c1=O	> 8 µM

* * *

Test system: panel of nearly 500 cancer cell lines
procedure.details: Cancer Cell Line Encyclopedia profiling, 3-day CellTiter-Glo
Assay type: cell-based
test.parameters: Homo sapiens, OVSAHO
value.kind: IC50

CN(C)C(=O)c1cc2cnc(Nc3ccc(N4CCNCC4)cn3)nc2n1C1CCCC1	> 8 µM

* * *

Listing: pEC50 of selected compounds
Test system: panel of nearly 500 cancer cell lines
procedure.details: Cancer Cell Line Encyclopedia profiling, 3-day CellTiter-Glo
Type: cell-based
test.parameters: Homo sapiens, SU.86.86
pEC50: −log10 of the molar value.
value.kind: pEC50

CN(C)C(=O)c1cc2cnc(Nc3ccc(N4CCNCC4)cn3)nc2n1C1CCCC1 [Ribociclib]	< 5.10
CC(=O)c1c(C)c2cnc(Nc3ccc(N4CCNCC4)cn3)nc2n(C2CCCC2)c1=O [Palbociclib, reference compound]	< 5.10
